Entries annotated with measured IC50
Molecular target: human mGlu8 receptor (Homo sapiens, UniProt O00222)
Sequence (O00222 34-908): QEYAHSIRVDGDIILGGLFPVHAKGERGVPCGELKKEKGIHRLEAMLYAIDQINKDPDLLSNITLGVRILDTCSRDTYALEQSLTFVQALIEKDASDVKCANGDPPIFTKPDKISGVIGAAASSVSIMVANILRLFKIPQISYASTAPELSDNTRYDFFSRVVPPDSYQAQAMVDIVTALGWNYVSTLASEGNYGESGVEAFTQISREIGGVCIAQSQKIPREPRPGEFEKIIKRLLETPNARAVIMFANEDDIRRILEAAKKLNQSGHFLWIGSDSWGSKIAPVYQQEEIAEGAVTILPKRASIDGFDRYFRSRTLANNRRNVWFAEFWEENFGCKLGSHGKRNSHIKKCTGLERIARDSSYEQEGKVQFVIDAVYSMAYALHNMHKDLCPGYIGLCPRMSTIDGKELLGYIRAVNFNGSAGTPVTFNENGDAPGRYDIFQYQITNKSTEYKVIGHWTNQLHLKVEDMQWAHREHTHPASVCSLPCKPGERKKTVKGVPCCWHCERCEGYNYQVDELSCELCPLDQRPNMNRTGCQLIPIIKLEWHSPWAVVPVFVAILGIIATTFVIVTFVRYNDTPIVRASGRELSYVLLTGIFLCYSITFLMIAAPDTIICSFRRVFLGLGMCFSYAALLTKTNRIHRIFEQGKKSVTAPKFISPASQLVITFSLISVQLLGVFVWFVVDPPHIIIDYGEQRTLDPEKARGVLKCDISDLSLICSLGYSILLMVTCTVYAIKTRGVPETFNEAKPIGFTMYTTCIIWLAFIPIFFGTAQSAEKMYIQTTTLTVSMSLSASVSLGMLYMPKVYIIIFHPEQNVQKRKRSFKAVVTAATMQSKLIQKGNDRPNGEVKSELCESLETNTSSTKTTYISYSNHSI
Assay: FLIPR calcium antagonist assay for mGlu receptor selectivity, mGlu8
Settings: FLIPR antagonist, in brackets under % inhib.
Reply with just the number (in µM).

COMPOUND	TARGET_DESC	UNIT_DESCRIPTOR	IC50
Cl.N[C@]1(C(=O)O)[C@@H]2[C@@H](C(=O)O)[C@@H]2[C@H](O)[C@H]1CSc1ccc(F)c(F)c1 [Example 1, hydrochloride]	human mGlu8 receptor (Homo sapiens, UniProt O00222)	µM	4.97

Now, please, on to the next compound.
Q) Provide only the value of recorded IC50 for Cl.N[C@]1(C(=O)O)[C@@H]2[C@@H](C(=O)O)[C@@H]2[C@H](O)[C@H]1CSc1ccc(F)c(Cl)c1 [Example 2, hydrochloride]
A) 7.86

---

Below, each of the compounds is paired with its reported IC50 value.
Biological target: UniProt Q14832
Sequence (Q14832 23-879): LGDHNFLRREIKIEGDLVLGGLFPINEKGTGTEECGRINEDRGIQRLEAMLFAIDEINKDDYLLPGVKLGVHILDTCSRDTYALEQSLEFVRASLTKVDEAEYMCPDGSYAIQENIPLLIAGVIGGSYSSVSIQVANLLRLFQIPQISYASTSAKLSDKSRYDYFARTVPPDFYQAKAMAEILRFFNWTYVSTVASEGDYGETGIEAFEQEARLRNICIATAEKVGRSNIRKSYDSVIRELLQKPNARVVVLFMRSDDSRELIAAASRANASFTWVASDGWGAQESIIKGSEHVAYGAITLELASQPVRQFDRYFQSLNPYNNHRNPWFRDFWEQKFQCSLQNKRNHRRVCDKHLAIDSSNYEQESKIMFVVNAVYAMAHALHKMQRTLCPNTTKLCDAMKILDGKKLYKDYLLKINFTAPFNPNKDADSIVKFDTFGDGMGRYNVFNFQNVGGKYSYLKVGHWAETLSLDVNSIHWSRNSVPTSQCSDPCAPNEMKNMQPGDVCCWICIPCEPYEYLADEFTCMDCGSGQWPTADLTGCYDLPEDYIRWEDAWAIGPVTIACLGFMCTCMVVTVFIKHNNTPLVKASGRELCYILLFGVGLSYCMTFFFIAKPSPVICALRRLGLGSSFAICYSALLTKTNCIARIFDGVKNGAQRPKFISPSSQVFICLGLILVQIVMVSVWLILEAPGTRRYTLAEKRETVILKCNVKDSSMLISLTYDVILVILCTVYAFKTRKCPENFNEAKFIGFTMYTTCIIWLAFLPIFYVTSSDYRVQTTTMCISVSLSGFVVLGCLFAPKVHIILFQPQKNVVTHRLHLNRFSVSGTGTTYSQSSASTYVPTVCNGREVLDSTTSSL
Experiment: mGlu3 receptor cAMP antagonist assay
Conditions: reversal of DCG IV (EC90) inhibition of forskolin-stimulated cAMP; relative IC50
Please report the result as a number followed by the unit.

Q) For the compound Cl.N[C@]1(C(=O)O)[C@@H]2[C@@H](C(=O)O)[C@@H]2[C@H](O)[C@H]1CSc1ccc(F)c(Cl)c1 [Example 2, hydrochloride] , give its reported IC50.
A) 13.4 nM

Q) Answer with reported IC50 of Cl.N[C@]1(C(=O)O)[C@@H]2[C@@H](C(=O)O)[C@@H]2[C@H](O)[C@H]1CSc1ccc(F)c(F)c1 [Example 1, hydrochloride]
A) 6.2 nM

---

Molecular target: human mGlu2 receptor (Homo sapiens, UniProt Q14416)
Sequence (Q14416 19-872): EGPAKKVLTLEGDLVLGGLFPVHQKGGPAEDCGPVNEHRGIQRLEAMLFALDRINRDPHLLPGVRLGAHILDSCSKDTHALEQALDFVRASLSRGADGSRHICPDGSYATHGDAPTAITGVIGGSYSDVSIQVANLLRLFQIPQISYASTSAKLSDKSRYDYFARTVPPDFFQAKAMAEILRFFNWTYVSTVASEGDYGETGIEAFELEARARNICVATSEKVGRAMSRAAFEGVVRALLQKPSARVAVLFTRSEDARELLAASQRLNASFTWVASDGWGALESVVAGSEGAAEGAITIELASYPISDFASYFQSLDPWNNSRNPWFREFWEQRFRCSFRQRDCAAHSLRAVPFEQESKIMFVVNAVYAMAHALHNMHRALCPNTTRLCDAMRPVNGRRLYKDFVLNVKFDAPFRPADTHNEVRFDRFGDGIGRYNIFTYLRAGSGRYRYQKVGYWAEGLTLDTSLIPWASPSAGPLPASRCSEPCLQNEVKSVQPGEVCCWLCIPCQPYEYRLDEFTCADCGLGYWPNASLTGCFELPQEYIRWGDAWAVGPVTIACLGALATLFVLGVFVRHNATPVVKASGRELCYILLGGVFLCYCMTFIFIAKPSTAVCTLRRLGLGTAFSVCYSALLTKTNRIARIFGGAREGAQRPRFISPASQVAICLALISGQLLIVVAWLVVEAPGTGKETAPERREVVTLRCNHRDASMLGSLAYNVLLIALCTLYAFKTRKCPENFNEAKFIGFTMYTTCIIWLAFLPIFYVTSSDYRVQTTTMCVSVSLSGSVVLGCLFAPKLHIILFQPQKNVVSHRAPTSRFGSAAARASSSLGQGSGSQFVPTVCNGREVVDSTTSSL
Test: mGlu2 receptor cAMP antagonist assay
Conditions: reversal of DCG IV (EC90) inhibition of forskolin-stimulated cAMP; relative IC50
REPORTED_METRIC: pIC50
// scale note: pIC50 = -log10(conc_M); give the bare number

Q) Tell me measured pIC50 for Cl.N[C@]1(C(=O)O)[C@@H]2[C@@H](C(=O)O)[C@@H]2[C@H](O)[C@H]1CSc1ccc(F)c(Cl)c1 [Example 2, hydrochloride] please.
A) 7.90
